Measured GI50, listed per entry.
Test system: OVCAR-8
Assay: NCI tumour cell line growth inhibition, 48 h
Calls of active or inactive are those of the source. Rule as the data show it: active = GI50 up to about 1.1 µM and inactive = higher.

{"COMPOUND": "Cc1ccc(/C=N/Nc2nc3ccccc3s2)s1", "SYSTEM_UNDER_TEST": "OVCAR-8", "GI50": "> 100 µM (inactive)"}
{"COMPOUND": "O=C1NC(N2CCCC(CO)C2)=N/C1=C\\c1ccc(O)cc1 (centres undefined)", "SYSTEM_UNDER_TEST": "OVCAR-8", "GI50": "> 100 µM (inactive)"}
{"COMPOUND": "COC(=O)CCc1cc(O)c2c(c1)C(C(=O)OC)C(c1ccc(O)c(O)c1)O2 (centres undefined)", "SYSTEM_UNDER_TEST": "OVCAR-8", "GI50": "21.8 µM (inactive)"}
{"COMPOUND": "CCCCCC[N+](C)(C)Cc1ccc(C[N+](C)(C)CCCCCC)cc1", "SYSTEM_UNDER_TEST": "OVCAR-8", "GI50": "3.1 µM (inactive)"}

* * *

Tested on: K562
Test: NCI tumour cell line growth inhibition, 48 h
Active and inactive are the calls of the source. Cut-off read from the data, not from the text of the source: active = GI50 up to about 1.1 µM and inactive = higher.
Possible outcomes: active, inactive

{"MOLECULE": "COc1ccc2cc(CNCCCCCCNCc3ccc4cc(OC)ccc4c3)ccc2c1", "SYSTEM_UNDER_TEST": "K562", "ASSIGNED_LABEL": "active"}
{"MOLECULE": "O=C(CCCl)NN=C1NCCCN1", "SYSTEM_UNDER_TEST": "K562", "ASSIGNED_LABEL": "inactive"}
{"MOLECULE": "C=C(Br)CN(C)CC(=C)Br", "SYSTEM_UNDER_TEST": "K562", "ASSIGNED_LABEL": "inactive"}
{"MOLECULE": "CCOC(=O)N/N=C(/N)Cc1ccccc1", "SYSTEM_UNDER_TEST": "K562", "ASSIGNED_LABEL": "inactive"}
{"MOLECULE": "CSc1nc2c(c(=O)n1C)N=C(c1ccc(Cl)cc1)CC(c1ccccc1)N2 (stereo unspecified)", "SYSTEM_UNDER_TEST": "K562", "ASSIGNED_LABEL": "inactive"}
{"MOLECULE": "CC1CC/C(=C\\c2ccc(F)cc2)C2=C1C(c1ccc(F)cc1)n1c(s/c(=C\\c3ccc(Cl)cc3)c1=O)=N2 (stereo unspecified)", "SYSTEM_UNDER_TEST": "K562", "ASSIGNED_LABEL": "inactive"}

* * *

Tested on: SNB-19
Assay: NCI tumour cell line growth inhibition, 48 h
Calls of active or inactive are those of the source. Cut-off read from the data, not from the text of the source: active = GI50 up to about 1.1 µM and inactive = higher.
GI50 reference
ASSAY_READOUT: GI50

{"COMPOUND": "c1csc(-c2cc(-c3cccs3)c(-c3cccs3)s2)c1", "ASSAY_READOUT": "GI50", "MEASURED_VALUE": "> 100 µM (inactive)"}
{"COMPOUND": "NCCCCNCCCNC(=O)c1nc(-c2nc(CCN)sc2Cl)sc1Cl", "ASSAY_READOUT": "GI50", "MEASURED_VALUE": "> 100 µM (inactive)"}
{"COMPOUND": "O=C(c1ccccc1)c1c(-c2ccccc2)[nH]n(-c2ccc([N+](=O)[O-])cc2)c(=O)c1=O", "ASSAY_READOUT": "GI50", "MEASURED_VALUE": "6.47 µM (inactive)"}
{"COMPOUND": "CCOC(=O)c1nc2ccc(Cl)cc2c2c1CCO2", "ASSAY_READOUT": "GI50", "MEASURED_VALUE": "> 100 µM (inactive)"}
{"COMPOUND": "NC(Cc1cc(I)c(O)c(I)c1)C(=O)O (stereo unspecified)", "ASSAY_READOUT": "GI50", "MEASURED_VALUE": "249 µM (inactive)"}
{"COMPOUND": "CCCNC(=O)C(C)C1CCC2(C)C=CC(=O)C(C)=C2C1O (stereo unspecified)", "ASSAY_READOUT": "GI50", "MEASURED_VALUE": "> 100 µM (inactive)"}

* * *

# key: entry, value: GI50
Test system: HCT-15

{"COMPOUND": "CC1=NN(C(=O)CC(=O)Nc2cccc(C)c2)C(=O)C1/N=N/c1ccc(S(=O)(=O)CCOS(=O)(=O)O)cc1 (stereo not given)", "OPERATOR_SYMBOL": "=", "GI50 (µM)": 0.319}
{"COMPOUND": "COc1ccc2nc3c(C(=O)NCCN(C)C)cccc3cc2c1", "OPERATOR_SYMBOL": "=", "GI50 (µM)": 2.25}
{"COMPOUND": "CCN1CCC(O)(/C=C/c2ccccc2)C(C(=O)/C=C/c2ccccc2)C1 (stereo not given)", "OPERATOR_SYMBOL": "=", "GI50 (µM)": 1.87}
{"COMPOUND": "CC(C)(C)c1cc(C(P(=O)(O)O)P(=O)(O)O)cc(C(C)(C)C)c1O", "OPERATOR_SYMBOL": ">", "GI50 (µM)": 100}
{"COMPOUND": "CNC(=O)[C@H](Cc1ccccc1)NC(=O)N(CCC#N)CCN(C(=O)N[C@@H](Cc1ccccc1)C(=O)OC)c1ccccc1", "OPERATOR_SYMBOL": ">", "GI50 (µM)": 100}
{"COMPOUND": "Cc1ccc2c(C)c3ccc4ccccc4c3c[n+]2c1.[O-][Cl+3]([O-])([O-])[O-]", "OPERATOR_SYMBOL": "=", "GI50 (µM)": 52.1}
{"COMPOUND": "CC(ON1[C@](C)(c2ccccc2)CC[C@@]1(C)c1ccccc1)c1ccccc1 (stereo not given in full)", "OPERATOR_SYMBOL": ">", "GI50 (µM)": 100}
{"COMPOUND": "CC(=O)N1C2=CCCC2(C)c2ccccc21 (stereo not given)", "OPERATOR_SYMBOL": ">", "GI50 (µM)": 100}
{"COMPOUND": "COC1/C=C(C)/C=C/C(C)/C=C/C(=O)OC(/C(C)=C/C=C(\\C)CNC(=O)[C@H](CO)NC=O)C(C)/C=C/C=C/C(OC)CC/C=C(C)/C=C/C1 (stereo not given in full)", "OPERATOR_SYMBOL": "=", "GI50 (µM)": 0.111}
{"COMPOUND": "COc1ccc(CCN2C(=O)C(=O)C(C(=O)c3ccccc3)C2c2ccccc2)cc1OC (stereo not given)", "OPERATOR_SYMBOL": "=", "GI50 (µM)": 60.5}
{"COMPOUND": "Cn1ncc2c(Nc3cccc(Cl)c3)nc(Nc3cccc(Cl)c3)nc21", "OPERATOR_SYMBOL": "=", "GI50 (µM)": 4.43}
{"COMPOUND": "O=C(NCc1ccccc1Cl)c1c(O)c2ccccc2[nH]c1=O", "OPERATOR_SYMBOL": "=", "GI50 (µM)": 42.8}
{"COMPOUND": "N#Cc1ccc(/C=N/C23CC4CC(CC(C4)C2)C3)cc1", "OPERATOR_SYMBOL": ">", "GI50 (µM)": 100}
{"COMPOUND": "COc1cc(C=C2C(C)=NN(c3cccc(Cl)c3)C23C(Cl)C(=O)N3c2nc3ccccc3s2)ccc1O (stereo not given)", "OPERATOR_SYMBOL": "=", "GI50 (µM)": 20.7}
{"COMPOUND": "COc1ccc2cc(CNCCCCCCNCc3ccc4cc(OC)ccc4c3)ccc2c1", "OPERATOR_SYMBOL": "=", "GI50 (µM)": 0.406}
{"COMPOUND": "COC(=O)C#CC(N)=O", "OPERATOR_SYMBOL": ">", "GI50 (µM)": 100}
{"COMPOUND": "O=C(NS(=O)(=O)OCC(Cl)(Cl)Cl)SCCC(F)(F)C(F)(F)C(F)(F)C(F)(F)C(F)(F)C(F)(F)F", "OPERATOR_SYMBOL": "=", "GI50 (µM)": 20.9}
{"COMPOUND": "O=P(c1ccccc1)(c1ccccc1)C(NCc1ccccc1)c1ccc(F)cc1 (stereo not given)", "OPERATOR_SYMBOL": "=", "GI50 (µM)": 13.2}
{"COMPOUND": "CN1CCN(c2nc3c(c(=O)n(C)c(=O)n3C)n2C)CC1", "OPERATOR_SYMBOL": ">", "GI50 (µM)": 100}
{"COMPOUND": "COc1cc(C=O)cc(/C=N/c2ccc(S(N)(=O)=O)cc2)c1O", "OPERATOR_SYMBOL": "=", "GI50 (µM)": 63.1}

* * *

Catalogue of compounds with associated GI50
System: OVCAR-8
Test: NCI tumour cell line growth inhibition, 48 h
The source made the active and inactive calls. Rule as the data show it: active = GI50 up to about 1.1 µM and inactive = higher.

{"COMPOUND": "C=C1c2nc3ccccc3n2C=C(c2ccc(Cl)cc2)N1c1ccc(OC)cc1", "GI50": "4.43 µM (inactive)"}
{"COMPOUND": "Cc1c2n(c(=O)[nH]c1=O)C1OC(CO)C(O2)C1O (stereo not given)", "GI50": "> 100 µM (inactive)"}
{"COMPOUND": "O=C(Nc1ccccc1SC(/C=C/NNC1=NN=C(c2ccccc2)C(c2ccccc2)N1)c1ccccc1)c1ccc(Cl)cc1Cl (stereo not given)", "GI50": "74.5 µM (inactive)"}
{"COMPOUND": "Cc1ccc(Cl)c2c(=O)c3ccc([N+](=O)[O-])cc3sc12", "GI50": "> 100 µM (inactive)"}
{"COMPOUND": "Cc1cc(N(CCC#N)CCC#N)ccc1/N=N/c1cc(Cl)ccc1Cl", "GI50": "7.74 µM (inactive)"}
